These measurements were taken from ChEMBL document CHEMBL1240308.

Experiment: Cytotoxicity against human SH-SY5Y cells overexpressing alpha-synuclein after 48 hrs by LDH assay
Type: cell-based
Details: read-out: LD50
measure: CC50 at 48 h (µM)
Expressed in µM, but write only the number.

Task item: Respond only with CC50 at 48 h recorded for `CC(C)CCC[C@@H](C)[C@H]1CC[C@H]2[C@H](CC(=O)O)[C@@H]([C@@]3(C)CC[C@H](O)CC3=O)CC[C@]12C`
Reply: 55

###

Assay: Cytotoxicity against human SH-SY5Y cells overexpressing alpha-synuclein after 48 hrs by MTT assay
Type: cell-based
Settings: read-out: LD50
measure: CC50 at 48 h (µM)
Could you give me the number in µM? Just the number is fine.

Task item: Answer with the recorded CC50 at 48 h of `CC(C)CCC[C@@H](C)[C@H]1CC[C@H]2[C@H](CC(=O)O)[C@@H]([C@@]3(C)CC[C@H](O)CC3=O)CC[C@]12C` only.
Reply: 55
